Form field: pest or weed control at 250 g/ha (one value per entry).
Test system: Alopecurus myosuroides (ALOMY)
procedure.text: Pre-emergence herbicidal activity, glasshouse pot test
Format: in vivo
test.conditions: Alopecurus myosuroides, 312 h; Rate 250 g/ha; pre-emergence spray; evaluated after 13 days; read-out: Pre-emergence activity ALOMY (100=total damage to plant; 0=no damage to plant)

# compound, pest or weed control at 250 g/ha / %
measured = [
    ("CCc1ccc(Oc2ccc([N+](=O)[O-])c(C)c2)cc1C1=C(O)C(C)(C)OC(C)(C)C1=O", 20),
    ("CCc1ccc(Oc2ccc(Cl)cc2Cl)cc1C1=C(O)[C@H]2CC[C@H](C2)C1=O (single isomer, unassigned)", 70),
    ("CCc1ccc(Oc2ncnc3sccc23)cc1C1=C(O)C(C)(C)OC(C)(C)C1=O", 0),
    ("CCc1ccc(Oc2ccc(Br)cc2F)cc1C1=C(O)C(C)(C)OC(C)(C)C1=O", 60),
]

Numbers sourced from patent US8865623B2.
